- TARGET OF ASSAY: T1, human 4Ig-B7H3 (B7H3-4Ig-His) (human, UniProt Q5ZPR3 29-466)
- T1 construct: Recombinant His-tagged protein immobilised on a CM5 chip; also called 41g-B7H3; human 4Ig-B7-H3 (dominant isoform); not shown: His tag
- T1 sequence: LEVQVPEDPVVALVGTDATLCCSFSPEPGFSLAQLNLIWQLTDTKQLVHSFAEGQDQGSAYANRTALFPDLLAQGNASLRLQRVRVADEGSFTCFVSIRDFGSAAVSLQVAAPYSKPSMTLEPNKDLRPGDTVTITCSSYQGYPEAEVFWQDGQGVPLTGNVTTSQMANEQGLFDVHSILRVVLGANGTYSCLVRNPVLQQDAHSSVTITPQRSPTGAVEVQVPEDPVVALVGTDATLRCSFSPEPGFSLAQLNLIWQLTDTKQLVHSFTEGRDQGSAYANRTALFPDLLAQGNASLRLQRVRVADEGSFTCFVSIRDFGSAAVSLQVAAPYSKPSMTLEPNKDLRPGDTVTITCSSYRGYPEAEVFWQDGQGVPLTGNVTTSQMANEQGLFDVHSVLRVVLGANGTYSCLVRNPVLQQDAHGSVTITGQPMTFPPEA
- MEASUREMENT NOTES: SPR
PROPERTY: t ½ (min)
Please respond with the number in min and leave the unit unwritten.

Challenge: Request the reported t ½ associated with 175Lu-DTPA-8H9-antibody (CAR3.6) (antibody, mouse IgG1, kappa, V domains shown, p-SCN-Bn-CHX-A″-DTPA conjugated (CAR 3.6 per antibody), labelled with cold lutetium-175; sites not stated) VH: QVQLQQSGAELVKPGASVKLSCKASGYTFTNYDINWVRQRPEQGLEWIGWIFPGDGSTQYNEKFKGKATLTTDTSSSTAYMQLSRLTSEDSAVYFCARQTTATWFAYWGQGTLVTVSA VL: DIVMTQSPATLSVTPGDRVSLSCRASQSISDYLHWYQQKSHESPRLLIKYASQSISGIPSRFSGSGSGSDFTLSINSVEPEDVGVYYCQNGHSFPLTFGAGTKLELKR
Response given: 43.3
